# IC50 per entry
Target: Nonstructural protein 3 (Zika virus)
Test: Functional biochemical assay to identify treatments for viral infectious disease that targets Zika NS2B-NS3 protease. Utilizing a direct enzyme activity measurement method, reading the fluorescence intensity is used to characterize the relative potency of inhibitors as IC50.
Design: species or system PRVABC59

Consider the following illustrative entries.
COc1ccc(F)cc1-c1ccc(S(=O)(=O)Nc2ccc(Cl)cc2C(=O)O)cc1 : 28.8 µM
N#Cc1cc(F)cc(N2CC[C@H](CO)C2)c1 : > 99.5 µM
Nc1cccc(NC(=O)c2cc(Cl)cc(NC(=O)OCc3ccccc3)c2)c1 : > 99.5 µM
O=C1NCc2ccccc2C12CCN(Cc1cc3ccc(F)cc3[nH]1)CC2 : > 99.5 µM
c1ccc2nc(SCc3cn4ccccc4n3)cnc2c1 : > 99.5 µM

Look at this compound and give its reported IC50. NCc1cccc(NC(=O)c2cccc3c2CC(=O)N3)c1
1.54 µM

Look at this compound and give its reported IC50. COc1ccc(-c2cc(NS(=O)(=O)c3ccc(Cl)cc3C(=O)O)ccc2OC)cc1
> 99.5 µM

Look at this compound and give its reported IC50. Cc1cc(-c2cccc([C@@H](NC(=O)OCc3ccccc3)C(=O)Nc3cccc(CN)c3)c2)ccn1
88.1 µM

Look at this compound and give its reported IC50. CCc1nc2ccc(Cl)cc2n1Cc1ccc2c(c1)CNC2
> 99.5 µM

Look at this compound and give its reported IC50. CC(C)CCN1Cc2ccc(NC(=O)c3cc(Cl)cc4[nH]ncc34)cc2C1
3.39 µM

Look at this compound and give its reported IC50. CCn1c(=O)c(N2CC[C@H](CO)C2)nc2cc(C(=O)NCc3ccccc3)ccc21
> 99.5 µM

* * *

Molecular target: Nonstructural protein 3 (Zika virus)
Test: Functional biochemical assay to identify treatments for viral infectious disease that targets Zika NS2B-NS3 protease. Utilizing a direct enzyme activity measurement method, reading the fluorescence intensity is used to characterize the relative potency of inhibitors as IC50.
Parameters: species or system PRVABC59
measured quantity: IC50 (µM)
Numeric answer only, unit µM assumed.

Consider the following illustrative entries.
NCc1cccc(NC(=O)[C@@H](NC(=O)OCc2ccccc2)c2cccc(OCC3CCC3)c2)c1 : 27.3
NCc1cccc(NC(=O)[C@H](NC(=O)c2ccns2)c2ccc(OCc3ccccc3)cc2)c1 : 95.2
NCc1cccc(NC(=O)c2cc(Cl)cc([C@H]3CCCCN3)c2)c1 : 7.17
NCC1CCN(C(=O)c2cc(Cl)cc(NC(=O)OCc3ccccc3)c2)CC1 : 97.3
O=C(NCC(F)F)[C@H](Nc1ccc2c(c1)CNC2)c1cc(Cl)cc(Cl)c1OCCN1CCOCC1 : 0.197

Look at this compound and give its reported IC50. Cc1ncccc1-c1ccc([C@@H](NC(=O)OCc2ccccc2)C(=O)Nc2cccc(CN)c2)cc1
98.1

Look at this compound and give its reported IC50. C=C(C)c1cc(NC(=O)OCc2ccccc2)cc(C(=O)Nc2cccc(CN)c2)c1
14.8

Look at this compound and give its reported IC50. COCCOc1ccc(Cl)cc1C(=O)Nc1cccc(CN)c1
77.5

* * *

Target: Nonstructural protein 3 (Zika virus, UniProt A0A024AXB9)
Sequence (A0A024AXB9 whole entry): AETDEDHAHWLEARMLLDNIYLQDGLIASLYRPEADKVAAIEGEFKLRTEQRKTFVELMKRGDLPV
Assay: Functional biochemical assay to identify treatments for viral infectious disease that targets Zika NS2B-NS3 protease. Utilizing a direct enzyme activity measurement method, reading the fluorescence intensity is used to characterize the relative potency of inhibitors as IC50.
Set-up: species or system PRVABC59
In plain terms, low IC50, meaning strictly below 3 µM, gives Condition met, and everything else gives Condition not met.

Illustrative cases are given below, each with its answer.
NCc1ccc2c(c1)[C@H]1OCCC[C@H]1[C@H](c1cc(Cl)cc(NC(=O)OCc3ccccc3)c1)N2 : Condition not met
N#C[C@H](Nc1ccc2c(c1)CNC2)c1cccc2[nH]ncc12 : Condition met
C=CC[C@H](Nc1cccc(C2(C(=O)O)CCC2)c1)c1cc(Cl)cc(NC(=O)OCc2ccccc2)c1 : Condition not met
O=C1Cc2c(cccc2C(=O)N[C@H]2C[C@H](c3ccon3)C2)N1 : Condition not met
NCc1cccc(NC(=O)c2cc(Cl)cc(NC(=O)NCc3ccccc3)c2)c1 : Condition met

Dear reviewer, please state whether O=C(O)Cc1cn2nc(-c3cc(Cl)cc(NC(=O)OCc4ccccc4)c3)ccc2n1 has IC50 strictly beneath 3 µM.
Condition not met

Dear reviewer, please state whether NC1(c2cccc(NC(=O)c3cc(Cl)cc(NC(=O)OCc4ccccc4)c3)c2)CCC1 has IC50 strictly beneath 3 µM.
Condition not met

Dear reviewer, please state whether N#C[C@]1(Nc2ccc3c(c2)CNC3)C(=O)Nc2ccc(Cl)cc21 has IC50 strictly beneath 3 µM.
Condition met

Dear reviewer, please state whether CCC1([C@H](NC(=O)OCc2ccccc2)C(=O)Nc2cccc(CN)c2)CCCCC1 has IC50 strictly beneath 3 µM.
Condition not met
